Quick reference for yeast fitness among some variants
B1: tRNA (parent)
chain: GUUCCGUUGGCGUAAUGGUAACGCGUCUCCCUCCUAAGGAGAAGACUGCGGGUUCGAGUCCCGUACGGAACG

# Variants of: B1
# TEST DETAILS: yeast fitness relative to wild type (ratio to wild type); higher = fitter; tRNA-Arg(CCU), competitive growth, 37 C, YPD
This sample holds only a part of the variants without activity.

| VARIANT STRING | RESULT QUALIFIER | yeast fitness |
| --- | --- | --- |
| A20U C24A G51C | ≤ | 0.5 |
| C11A U35A C61U C62U C66A | ≤ | 0.5 |
| C33G | = | 0.743 |
| U13C A40C | = | 0.882 |
| C11U C29U A36U C66U G67A | ≤ | 0.5 |
| C11U G18A G48A G67C | ≤ | 0.5 |
| G6A A69U | = | 0.916 |
| U2A A20G G67A | = | 0.584 |
| G25A U35C A43G | ≤ | 0.5 |
| U16C G48A A70U | = | 0.798 |
| A42G G48A | = | 0.863 |
| G17C U28A C34G G38A G51A | = | 0.512 |
| G12C U13C A20C C24G G39C G68C | = | 0.511 |
| U3A A36U A43G G52C | ≤ | 0.5 |
| G10A G17C C30G C33G C61A A65U | ≤ | 0.5 |
| G17A C22G C27A | = | 0.579 |
| C5U C33U A45G C61U | ≤ | 0.5 |
| G6A G44A C46A G52A C66U | = | 0.526 |
| C11U A43C C66U | = | 0.699 |
| C5G A14G A15G C30U A45G U64A | ≤ | 0.5 |
| C24G C30U C31G G50A | ≤ | 0.5 |
| U3A C30G A36G C46G | ≤ | 0.5 |
| G6A A14U A20C U28C C46U G58A | ≤ | 0.5 |
| C5G A14U C49A A57G | = | 0.639 |
| U2A A21C C22A C29U C49G | ≤ | 0.5 |
| C4U G23C C30G | ≤ | 0.5 |
| A43U G56A C66G | = | 0.553 |
| G9A A20C | = | 0.871 |
| G6C G17A A36U C46A C66A | = | 0.512 |
| G10A U26A C62U | = | 0.529 |
| U8G A14U G39A C55G | ≤ | 0.5 |
| C34G G50A | = | 0.644 |
| C34A U54A | ≤ | 0.5 |
| C29U U47G C49G A70G | ≤ | 0.5 |
| U7C G67U A70U | = | 0.544 |
| C11G U28A A65U A69U | ≤ | 0.5 |
| A36U A65U | = | 0.597 |
| U8C U16A A21C C24G A37U C55U | ≤ | 0.5 |
| U16G U19A G23C C49U | ≤ | 0.5 |
| C22U C27G C31U G68A | ≤ | 0.5 |
| A20U C30U A57G A65U | ≤ | 0.5 |
| G38A A40U G50C C60G A70G | = | 0.526 |
| G41A G52A A69C | = | 0.53 |
| C11U A45U | = | 0.951 |
| U3C A43C | = | 1.04 |
| A40C A57G C61U | = | 0.573 |
| U2A G12U G23A A36U G58C C60U | ≤ | 0.5 |
| U3A G38A | = | 0.787 |
| U3G C66U | = | 0.699 |
| G12C C34A G58C A65U A69C | ≤ | 0.5 |
| A15U C22G C31U G50A | ≤ | 0.5 |
| U13C A21G G39C G50A U59G C61A C62U | = | 0.502 |
| G9A C30A A65C | = | 0.664 |
| G18U A21U G52A | ≤ | 0.5 |
| A42U U53C | = | 0.732 |
| C22G C24A C27U U59A | ≤ | 0.5 |
| C27U C30U C34G A37C A69C | ≤ | 0.5 |
| A20C C31U A40G G52C A65G | = | 0.551 |
| G25A C33G A42G G50A G52A | ≤ | 0.5 |
| C11G C24U G67A | ≤ | 0.5 |
| U16A A43C A45G | = | 0.988 |
| U35C A45C C49G A57U G63A | ≤ | 0.5 |
| C5A G17A A43U C55U | ≤ | 0.5 |
| C33U A65C | = | 0.664 |
| A37G G58C | = | 0.719 |
| A15G U64G A69C | = | 0.564 |
| A20C C29U U32A | ≤ | 0.5 |
| C22G C24G C55G | ≤ | 0.5 |
| G44A G68A | = | 0.802 |
| C5U G9C A36G | = | 0.538 |
| U16C G48C C62U A65G | ≤ | 0.5 |
| U7A U8A G25A G67C | ≤ | 0.5 |
| C5U G10C C30G C34U A42C | ≤ | 0.5 |
| U19A C46U G48A U53C | = | 0.784 |
| U28C A36C U47A G58C G67U | ≤ | 0.5 |
| C11A C27U G44C | = | 0.572 |
| A14C C62U | = | 0.853 |
| A21U C30G C31U G48C | = | 0.753 |
| U2A C30A G63C | ≤ | 0.5 |
| U32C C33A G51C G68A | ≤ | 0.5 |
| C5U A21G C27U G41A C66A | ≤ | 0.5 |
| G17C C46A A65C | ≤ | 0.5 |
| C4A A14G A36U A57U | = | 0.953 |
| C5A A36G A42C A43U | ≤ | 0.5 |
| A15G U28C U35A G38A C46G C62U G67U | ≤ | 0.5 |
| C4A A15G C27U | = | 0.664 |
| G10C A14G C27U G38A C46G | ≤ | 0.5 |
| C11G C66U | = | 0.615 |
| C5A G23C C62U A69U | ≤ | 0.5 |
| A21G C27G C60G A70C | ≤ | 0.5 |
| G48C C62A | = | 0.771 |
